- measured target: human GPR119 (Homo sapiens, UniProt Q8TDV5)
- Sequence (Q8TDV5 whole entry): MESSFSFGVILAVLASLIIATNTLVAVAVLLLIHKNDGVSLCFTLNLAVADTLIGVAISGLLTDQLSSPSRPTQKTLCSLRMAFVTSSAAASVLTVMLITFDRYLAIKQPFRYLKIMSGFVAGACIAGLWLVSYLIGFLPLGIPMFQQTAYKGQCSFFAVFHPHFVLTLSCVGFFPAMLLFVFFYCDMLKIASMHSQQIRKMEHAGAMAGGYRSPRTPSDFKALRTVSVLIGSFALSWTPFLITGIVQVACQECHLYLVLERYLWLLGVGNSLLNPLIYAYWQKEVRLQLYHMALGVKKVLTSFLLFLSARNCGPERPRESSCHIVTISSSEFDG
- assay explanation: Functional cellular assay measuring GPR119-mediated cAMP release (HTRF) in HEK-293 cells stably expressing recombinant GPR119
- study conditions: cell line expressing human GPR119, 30 minutes at room temperature
- Procedure: Functional Cellular Assays Measuring GPR119-mediated cAMP Release Compounds of the present disclosure, which are agonists of GPR119, were characterized by functional assays measuring the cAMP response of HEK-293 cell lines stably expressing recombinant GPR119 from man, mouse or rat, or by using the hamster cell line HIT-T15 expressing GPR119 endogenously. The cAMP content was determined using a kit based on homogenous time-resolved fluorescence (HTRF) from Cisbio Corp. (cat. no. 62AM4PEC). […]
Listed here are molecules together with their documented EC50.
parameter measured: EC50

molecule: CS(=O)(=O)C1CN(c2ncc(N3CCC(Cc4ccc(OCC(F)(F)F)nc4)C3=O)cn2)C1 (single isomer, unassigned) [Compound 1-44]
reported result: 138 nM

molecule: CN(C)C(=O)C1CN(c2ccc(N3CC[C@@H](Oc4ccc(OCC(F)(F)F)nc4)C3=O)cn2)C1
reported result: 44 nM

molecule: C[S+]([O-])C1CN(c2ncc(N3CC[C@@H](Oc4ccc(Oc5ccc(F)cc5)nc4)C3=O)cn2)C1 (stereo partly shown)
reported result: 2070 nM

molecule: CC(C)SC1CN(c2ncc(N3CC[C@@H](Oc4ccc(OCC(F)(F)F)nc4)C3=O)cn2)C1
reported result: 16 nM

molecule: CN(C)C(=O)C1CN(c2ccc(N3CC[C@@H](Oc4ccc(OCC5CC5)nc4)C3=O)cn2)C1
reported result: 170 nM

molecule: CC(C)[S+]([O-])C1CN(c2ncc(N3CC[C@@H](Oc4ccc(OCC(F)(F)F)nc4)C3=O)cn2)C1 (stereo partly shown) [Compound 1-51]
reported result: 93 nM

molecule: O=C(O)C1CN(c2ccc(N3CC[C@@H](Oc4ccc(OCC(F)(F)F)nc4)C3=O)cn2)C1
reported result: 391 nM

====

- measured target: human GPR119 (Homo sapiens, UniProt Q8TDV5)
- assay explanation: Functional cellular assay measuring GPR119-mediated cAMP release (HTRF) in HEK-293 cells stably expressing recombinant GPR119
- study conditions: cell line expressing human GPR119, 30 minutes at room temperature
pEC50: −log10 of the molar value.
parameter measured: pEC50

compound: NC(=O)C1CN(c2ncc(N3CC[C@@H](Oc4ccc(Oc5ccc(F)cc5)nc4)C3=O)cn2)C1 [Compound 4-04]
reported result: 5.23
--
compound: CN(C)C(=O)C1CN(c2ncc(N3CC[C@@H](Oc4ccc(C(=O)C5CC5)nc4)C3=O)cn2)C1 [Compound 2-04]
reported result: 6.03
--
compound: CN(C)C(=O)C1CN(c2ncc(N3CC[C@@H](Oc4ccc(OCC(F)(F)F)cc4)C3=O)cn2)C1 [Compound 1-53]
reported result: 6.45
--
compound: CN(C)C(=O)C1CN(c2ncc(N3CC[C@@H](Oc4ccc(OCC(F)(F)F)nc4)C3=O)cn2)C1 [Compound 1-31]
reported result: 6.89
--
compound: CC(C)NC(=O)C1CN(c2ncc(N3CC[C@@H](Oc4ccc(Oc5ccc(F)cc5)nc4)C3=O)cn2)C1 [Compound 4-05]
reported result: 5.77
--
compound: CN1CCC2(CN(c3ncc(N4CC[C@@H](Oc5ccc(OCC(F)(F)F)nc5)C4=O)cn3)C2)C1=O [Compound 1-28]
reported result: 6.54
--
compound: CCN(CC)C(=O)C1CN(c2ncc(N3CC[C@@H](Oc4ccc(Oc5ccc(F)cc5)nc4)C3=O)cn2)C1 [Compound 4-07]
reported result: 6.55
--
compound: C[S+]([O-])C1CN(c2ncc(N3CC[C@@H](Oc4ccc(C(=O)C5CC5)cc4)C3=O)cn2)C1 (single isomer, unassigned) [Compound 1-21]
reported result: 6.00
--
compound: O=C(NC1CC1)C1CN(c2ncc(N3CC[C@@H](Oc4ccc(Oc5ccc(F)cc5)nc4)C3=O)cn2)C1 [Compound 4-09]
reported result: 5.82
--
compound: O=C(C1CN(c2ncc(N3CC[C@@H](Oc4ccc(Oc5ccc(F)cc5)nc4)C3=O)cn2)C1)N1CC(O)C1 [Compound 4-11]
reported result: 6.04
--
compound: CS(=O)(=O)C1CN(c2ncc(N3CC[C@@H](Oc4ccc(C(=O)C5CC5)cc4)C3=O)cn2)C1 [Compound 1-17]
reported result: 6.91
--
compound: CS(=O)(=O)C1CN(c2ncc(N3CC[C@@H](Oc4ccc(OCC(F)(F)F)nc4)C3=O)cn2)C1 [Compound 1-16]
reported result: 7.24
--
compound: O=C(C1CN(c2ncc(N3CC[C@@H](Oc4ccc(Oc5ccc(F)cc5)nc4)C3=O)cn2)C1)N1CCC(O)CC1 [Compound 4-06]
reported result: 6.18
--
compound: CS(=O)(=O)C1CN(c2ncc(N3CC[C@@H](Oc4ccc(C(=O)C5CC5)c(F)c4)C3=O)cn2)C1 [Compound 1-39]
reported result: 6.75
--
compound: CN(C)C(=O)OC1CN(c2ncc(N3CC[C@@H](Oc4ccc(OCC(F)(F)F)nc4)C3=O)cn2)C1 [Compound 5-02]
reported result: 5.99
--
compound: CCN(CC)C(=O)C1CN(c2ncc(N3CC[C@@H](Oc4ccc(OCC(F)(F)F)nc4)C3=O)cn2)C1 [Compound 4-14]
reported result: 7.08
--
compound: CN(CO)C(=O)C1CN(c2ccc(N3CC[C@@H](Oc4ccc(OCC(F)(F)F)nc4)C3=O)cn2)C1 [Compound 5-05]
reported result: 7.17
--
compound: CCNC(=O)C1CN(c2ncc(N3CC[C@@H](Oc4ccc(OCC(F)(F)F)nc4)C3=O)cn2)C1 [Compound 4-13]
reported result: 6.61
--
compound: O=C(C1CN(c2ncc(N3CC[C@@H](Oc4ccc(Oc5ccc(F)cc5)nc4)C3=O)cn2)C1)N1CCCC1 [Compound 4-10]
reported result: 6.36
--
compound: O=C1[C@H](Oc2ccc(OCC(F)(F)F)nc2)CCN1c1cnc(N2CC(n3cn[nH]c3=O)C2)nc1 [Compound 5-03]
reported result: 6.18
--
compound: O=C1[C@H](Oc2ccc(OCC(F)(F)F)nc2)CCN1c1cnc(N2CC3(CCNC3=O)C2)nc1 [Compound 1-26]
reported result: 6.35
--
compound: O=C(C1CN(c2ncc(N3CC[C@@H](Oc4ccc(OCC(F)(F)F)nc4)C3=O)cn2)C1)N1CCCC1 [Compound 4-15]
reported result: 7.08
--
compound: COCC(=O)NC1CN(c2ncc(N3CC[C@@H](Oc4ccc(OCC(F)(F)F)nc4)C3=O)cn2)C1 [Compound 4-23]
reported result: 6.02
--
compound: NC(=O)OC1CN(c2ncc(N3CC[C@@H](Oc4ccc(OCC(F)(F)F)nc4)C3=O)cn2)C1 [Compound 5-01]
reported result: 6.34
--
compound: CN(C)C(=O)C1CN(c2ncc(N3CC[C@@H](Oc4ccc(C(=O)c5ccc(F)cc5)nc4)C3=O)cn2)C1 [Compound 2-06]
reported result: 6.84
--
compound: CC(C)[S+]([O-])C1CN(c2ncc(N3CC[C@@H](Oc4ccc(C(=O)C5CC5)c(F)c4)C3=O)cn2)C1 (stereo partly shown) [Compound 1-41]
reported result: 6.66
--
compound: C[S+]([O-])C1CN(c2ncc(N3CC[C@@H](Oc4ccc(C(=O)C5CC5)c(F)c4)C3=O)cn2)C1 (stereo partly shown) [Compound 1-40]
reported result: 5.74
--
compound: NC(=O)CNC(=O)C1CN(c2ncc(N3CC[C@@H](Oc4ccc(Oc5ccc(F)cc5)nc4)C3=O)cn2)C1 [Compound 4-02]
reported result: 5.17
